# Test system: A549
# method: NCI tumour cell line growth inhibition, 48 h
The source made the active and inactive calls. Cut-off read from the data, not from the text of the source: active = GI50 up to about 1.1 µM and inactive = higher.

compound	GI50
CC(C)C1CC(O)O[C@@H]([C@@H](C)[C@H]2CC(=O)[C@@H]3[C@@H]4[C@@H](O)[C@H](O)[C@H]5[C@@H](O)[C@H](O)CC[C@]5(C)[C@H]4CC[C@]23C)C1 (stereo partly specified)	53.1 µM (inactive)
CCOC(=O)/C(=C\c1ccccc1)C(=O)CCN1CCOCC1	22.4 µM (inactive)
N=C(N)SCCc1cn2ccccc2n1	> 100 µM (inactive)
OC12c3ccccc3C1CCCCCCCCCC21OCCCO1 (stereo unspecified)	> 100 µM (inactive)
CC1OC(=O)N2CCC=CC12 (stereo unspecified)	> 100 µM (inactive)
N=C(N)c1ccc(C(NC(=O)CNS(=O)(=O)c2ccc3ccccc3c2)P(=O)(Oc2ccccc2)Oc2ccccc2)cc1 (stereo unspecified)	54.1 µM (inactive)
C#CC[C@]12CC(=O)CC[C@H]1CC1(C2)OCCO1	> 100 µM (inactive)
CC(=O)N/C(=C\c1ccc(/C=C(\NC(C)=O)c2nc3cc(Cl)ccc3[nH]2)cc1)c1nc2ccccc2[nH]1	> 100 µM (inactive)
c1ccc2c(c1)oc1ccc3nsnc3c12	> 100 µM (inactive)
COc1ccc(C(C)NNC(=O)c2cc[n+]([BH2-]C#N)cc2)cc1F (stereo unspecified)	> 100 µM (inactive)
OC(c1ccccc1)C1CC2C=CC1C2 (stereo unspecified)	> 100 µM (inactive)
OC1=CN=C(C2CC2)Oc2ccccc21	> 100 µM (inactive)
NC(=S)Nc1nnc(-c2ccc(-c3nnc(NC(N)=S)o3)cc2)o1	> 100 µM (inactive)
Cc1ccc(NC(=O)CCC(=O)C(C#N)c2ccccc2)cc1C (stereo unspecified)	> 100 µM (inactive)
CCOC(=O)c1nc2ccc(C(F)(F)F)cc2nc1Nc1ccc(F)cc1	28.8 µM (inactive)
CC(Cl)(/C=C/Cl)C(Cl)/C=C/C(Cl)(CCl)CBr (stereo unspecified)	15.2 µM (inactive)
Oc1cccc(/C=N/N=c2/[nH][nH]/c(=N/N=C/c3cccc(O)c3)c3ccccc23)c1	21.4 µM (inactive)
O=C1OC2CCCC[C@@H]2C2C[C@]34CCCCC3[C@@H](C(=O)O4)C12 (stereo partly specified)	> 100 µM (inactive)
CCOC(=O)Cn1c(C(F)(F)F)nc2nc(Cl)c(Cl)nc21	47.8 µM (inactive)
COC(=O)C(CCSC)NC(=O)CNC(=O)CSc1nnc(COc2ccc(Cl)cc2)n1-c1ccccc1 (stereo unspecified)	41.3 µM (inactive)
COc1cccc(C2c3cc4c(cc3OC(NNC(N)=O)C2C)OCO4)c1OC (stereo unspecified)	19.6 µM (inactive)
